Hey, just so you know, these numbers are from ChEMBL document CHEMBL1201862.

# System: SW-620
# assay.comment: NCI tumour cell line growth inhibition, 48 h
Activity calls are given as the source filed them. Rule as the data show it: active = GI50 up to about 1.1 µM and inactive = higher.
Pick one: T = active, F = inactive

Please review the following examples before continuing.
>>> class_name("Cn1c2n/c(=N\\c3ccc(Cl)cc3)[n+]3ccc4ccccc4c3c-2c([O-])n1-c1ccccc1")
"F"
>>> class_name("CCOC(=O)c1ccc(/N=C2\\S/C(=C\\C(=S)Nc3ccccc3)N(c3ccccc3)\\C2=N/c2ccc(C(=O)OCC)cc2)cc1")
"F"
>>> class_name("CNC/C(Cl)=N/S(=O)(=O)c1ccc(C)cc1")
"F"
>>> class_name("CC(C)CC(N)C(=O)OCN1C(=O)C2C3C=CC(C2C1=O)C1C2C(=O)N(COC(=O)C(N)CC(C)C)C(=O)C2C31 (stereo not given)")
"F"
>>> class_name("C=CC(=O)N1C/C(=C\\c2ccc(N(C)C)cc2)C(=O)/C(=C/c2ccc(N(C)C)cc2)C1")
"F"
>>> class_name("CNC(=O)C(C)C1C(=O)/C(=C(O)/C=C\\C(C)=C\\C(C)C2OC3(C)OC(C=CC34CO4)C2C)C(=O)N1C1CCC(O)C(C)O1 (stereo not given)")
"F"
>>> class_name("O=C1CNS(=O)(=O)N1")
"F"
>>> class_name("O=C(CCCN1CC=C(n2c(=O)[nH]c3ccccc32)CC1)c1cccs1")
"F"

**Q:** Please share the test call associated with O=C1CN2C(c3ccccc3)=NN(c3ccc([N+](=O)[O-])cc3)C2(c2ccccc2)c2cc(Cl)ccc2N1CC1CC1 (stereo not given) .
**A:** F

**Q:** Please share the test call associated with COC(=O)c1cccc(OC)c1C#Cc1c(OC)cccc1OC .
**A:** F

**Q:** Please share the test call associated with OC1(c2ccccc2)OC(C#Cc2ccccc2)(c2ccccc2)c2ccccc21 (stereo not given) .
**A:** F

**Q:** Please share the test call associated with Nc1ccc(-c2nc3ccccc3s2)cc1CO .
**A:** F

**Q:** Please share the test call associated with CCOC(=O)C1=COC(C)(CCc2ccccc2)CC1=O (stereo not given) .
**A:** F

**Q:** Please share the test call associated with COc1ccccc1N1C(=O)CS(=O)(=O)C1c1cccc(Oc2ccccc2)c1 (stereo not given) .
**A:** F

**Q:** Please share the test call associated with CCCCC1CC(c2ccc(Cl)cc2)=NO1 (stereo not given) .
**A:** F

**Q:** Please share the test call associated with O=C1c2ccccc2C(=O)c2c(NCCCNCCO)ccc(NCCCNCCO)c21 .
**A:** F

**Q:** Please share the test call associated with NC(=O)c1nnsc1NN=O .
**A:** F

====

# System: EKVX
# assay.comment: NCI tumour cell line growth inhibition, 48 h
Activity calls are given as the source filed them. No stated cut-off is given here; in the data, active = GI50 up to about 1.1 µM and inactive = higher.
readout.name: GI50

These solved cases illustrate the format of a correct answer.
>>> experimental_value("OC1(c2ccccc2)OC(C#Cc2ccccc2)(c2ccccc2)c2ccccc21 (stereo unspecified)")
"3.19 µM (inactive)"
>>> experimental_value("O=C1/C(=C/c2ccccc2O)N=C(c2ccccc2)N1C1Nc2cc3c(cc2S1)NC(N1C(=O)/C(=C/c2ccccc2O)N=C1c1ccccc1)S3 (stereo unspecified)")
"46.7 µM (inactive)"
>>> experimental_value("COc1c(C)c(OCC=C(C)C)cc(CO)c1CO")
"77.8 µM (inactive)"
>>> experimental_value("N=C(N)SCCCN")
"35.4 µM (inactive)"
>>> experimental_value("COc1cc(OC(=O)c2c(O)cc(O)c(O)c2C)cc(C)c1C(=O)Oc1cc(C)c(C(=O)O)c(O)c1")
"> 100 µM (inactive)"
>>> experimental_value("CC1(C)C(c2ccccc2)=[N+]([O-])C(C)(C)N1O")
"> 10 µM (inactive)"
>>> experimental_value("CCn1ncc(N=O)c1N")
"> 100 µM (inactive)"
>>> experimental_value("COc1cc(C2c3cc4c(cc3OC(O)C2C)OCO4)cc(OC)c1OC (stereo unspecified)")
"1.53 µM (inactive)"
>>> experimental_value("C/C(=N\\NC(=N)N)C(CN(CC(C)C)CC(C)C)C(=O)Nc1ccc(C)cc1C (stereo unspecified)")
"81.5 µM (inactive)"
>>> experimental_value("O=c1c(=O)c2cscc2c1=O")
"5.11 µM (inactive)"

Now for the compound whose GI50 we want.
**Q:** Any idea what its GI50 is? The compound is CCN(CC)C(=S)N/N=C(\C)c1ccccc1O
**A:** 36.4 µM (inactive)

====

# Test system: HOP-92
# assay.comment: NCI tumour cell line growth inhibition, 48 h
Activity calls are given as the source filed them. Cut-off read from the data, not from the text of the source: active = GI50 up to about 1.1 µM and inactive = higher.
Pick one: active, inactive

Please review the following examples before continuing.
>>> class_name("N#Cc1ccccc1NC(=O)C(=O)C(C(=O)c1ccccc1F)C1OC(=O)c2ccccc21 (stereo not given)")
"inactive"
>>> class_name("COC(=O)c1cccc(OC)c1C#Cc1c(OC)cccc1OC")
"inactive"
>>> class_name("CCCCCCCCCCCCc1ccsc1-c1ccc(-c2ccc(-c3sccc3CCCCCCCCCCCC)s2)s1")
"inactive"

**Q:** Please share the test call associated with Cc1ccc(NC(=O)S(N)(c2ccc(C)cc2)[N+](=O)[O-])cc1 (stereo not given) .
**A:** inactive

**Q:** Please share the test call associated with CN(C)c1ccc(/C=C2\C[C@H]3[C@@H]4CCc5cc(OCCN6CCCC6)ccc5[C@H]4CC[C@]3(C)[C@H]2O)cc1 .
**A:** inactive

**Q:** Please share the test call associated with CCCCCCCCCc1cc(=O)c2ccc(OCc3ccccc3)cc2o1 .
**A:** inactive

**Q:** Please share the test call associated with CC1CCC23COC(=O)C2C(O)CCC3C1(C)CC(O)c1ccoc1 (stereo not given) .
**A:** inactive

**Q:** Please share the test call associated with O=[N+]([O-])c1ccc2[nH]c(=S)[nH]c(=S)c2c1 .
**A:** inactive

**Q:** Please share the test call associated with Cc1nc2c(o1)C(=O)c1ccccc1/C2=N/c1ccccn1 .
**A:** inactive

**Q:** Please share the test call associated with OCCN(CCO)c1cccc(N(CCO)CCO)c1 .
**A:** inactive

====

# System: SNB-19
# assay.comment: NCI tumour cell line growth inhibition, 48 h
The source made the active and inactive calls. No stated cut-off is given here; in the data, active = GI50 up to about 1.1 µM and inactive = higher.
readout.name: GI50

>>> experimental_value("Fc1cc(C2=Nn3c(CNc4ccc(Cl)cc4)nnc3S/C2=C\\c2ccc(-c3ccc(Cl)cc3)o2)c(Cl)cc1Cl")
"44 µM (inactive)"
>>> experimental_value("CCOC(=O)C(NC(=O)CC(C)C)(N1CCN(c2cc3c(cc2F)c(=O)c(C(=O)O)cn3C2CC2)CC1)C(F)(F)F (configuration not stated)")
"28.8 µM (inactive)"
>>> experimental_value("CN(C)c1ccc(/C=C2\\C[C@H]3[C@@H]4CCc5cc(OCCN6CCCC6)ccc5[C@H]4CC[C@]3(C)[C@H]2O)cc1")
"18.7 µM (inactive)"
>>> experimental_value("c1cc2[se][se]c3c4cccc5[se][se]c(c(c1)c23)c54")
"> 100 µM (inactive)"
>>> experimental_value("CCOc1ccc2nc(NC(=O)/C(CC(=O)CC(C3=C(O)c4ccccc4CC3=O)c3ccccc3)=N\\O)sc2c1 (configuration not stated)")
"> 100 µM (inactive)"

**Q:** Any idea what its GI50 is? The compound is CSc1nc(Cl)c2c(n1)Sc1nc3cc4c(cc3n1C2O)OCO4 (configuration not stated)
**A:** 1.57 µM (inactive)

**Q:** Any idea what its GI50 is? The compound is Cc1ccc(NC(=O)CC2SC(Nc3cccc(Cl)c3C)=NC2=O)cc1 (configuration not stated)
**A:** 40.4 µM (inactive)

**Q:** Any idea what its GI50 is? The compound is CSC1C(=O)Nc2ccc3ccccc3c21 (configuration not stated)
**A:** 89.5 µM (inactive)

**Q:** Any idea what its GI50 is? The compound is COc1ccc(CCc2cc(OC)c(O)c(OC)c2)cc1
**A:** 98.6 µM (inactive)

**Q:** Any idea what its GI50 is? The compound is N#CC1=CNc2sccc2S1(=O)=O
**A:** > 100 µM (inactive)

**Q:** Any idea what its GI50 is? The compound is Cn1c(=O)c(C2c3ccccc3Oc3c2c(=O)n(C)c2ccccc32)c(O)c2ccccc21 (configuration not stated)
**A:** 44.4 µM (inactive)

**Q:** Any idea what its GI50 is? The compound is Cc1cccc(C)c1NC(=O)C(C#N)C1=C(Cl)C(=O)c2ccccc2C1=O (configuration not stated)
**A:** 16 µM (inactive)

====

# System: HOP-62
# assay.comment: NCI tumour cell line growth inhibition, 48 h
Calls of active or inactive are those of the source. No stated cut-off is given here; in the data, active = GI50 up to about 1.1 µM and inactive = higher.
Pick one: yes (1) (active), no (0) (inactive)

>>> class_name("COc1cc(CNc2ccc(C)cc2)cc(OC)c1OC")
"yes (1)"
>>> class_name("CC1C2CC(CC23OCC(CCl)O3)C1(C)C (stereo unspecified)")
"no (0)"
>>> class_name("COCOc1c(C(OCOC)c2cnc(Sc3ccccc3)n2C)ccc(OC)c1OC (stereo unspecified)")
"no (0)"
>>> class_name("CC(=O)c1sc2c(c1OC(=O)c1ccco1)c(=O)n(-c1ccccc1)c(=S)n2-c1ccccc1")
"no (0)"
>>> class_name("COc1ccc(OC)c(NC(=O)C(=O)NNC(=O)c2sc(NNC(C)=O)nc2C)c1")
"no (0)"

**Q:** Please share the test call associated with O=C1/C(=C\c2ccccc2)C(NC2CCCCC2)c2ccccc21 (stereo unspecified) .
**A:** no (0)

**Q:** Please share the test call associated with COC(=O)[C@H]1C=C[C@H](OC2OC(COC(C)=O)C(OC(C)=O)C(OC(C)=O)C2OC(C)=O)n2c(=O)n(-c3ccccc3)c(=O)n21 (stereo partly specified) .
**A:** no (0)

**Q:** Please share the test call associated with COc1ccc(COCC(Cn2ccnc2)OCc2ccc(C(=O)O)cc2)cc1 (stereo unspecified) .
**A:** no (0)

**Q:** Please share the test call associated with CC(C)OC(=O)c1ccc(NCC2=CC(=O)C=CC2=O)cc1 .
**A:** no (0)

**Q:** Please share the test call associated with CCOC(=O)/C=C/C(Br)=C(Br)/C=C/C(=O)OCC .
**A:** no (0)

**Q:** Please share the test call associated with CC(=O)C1Cn2c(nc3ccccc32)C[Se]1 (stereo unspecified) .
**A:** no (0)
